All figures here come from patent US6262073A.

Target: Cyclooxygenase-1 (cyclooxygenase from ram seminal vesicles) (Ovis aries, UniProt P05979)
Construct: cyclooxygenase from ram seminal vesicles; from tissue; host or cells: ram seminal vesicles
Sequence (P05979 25-600): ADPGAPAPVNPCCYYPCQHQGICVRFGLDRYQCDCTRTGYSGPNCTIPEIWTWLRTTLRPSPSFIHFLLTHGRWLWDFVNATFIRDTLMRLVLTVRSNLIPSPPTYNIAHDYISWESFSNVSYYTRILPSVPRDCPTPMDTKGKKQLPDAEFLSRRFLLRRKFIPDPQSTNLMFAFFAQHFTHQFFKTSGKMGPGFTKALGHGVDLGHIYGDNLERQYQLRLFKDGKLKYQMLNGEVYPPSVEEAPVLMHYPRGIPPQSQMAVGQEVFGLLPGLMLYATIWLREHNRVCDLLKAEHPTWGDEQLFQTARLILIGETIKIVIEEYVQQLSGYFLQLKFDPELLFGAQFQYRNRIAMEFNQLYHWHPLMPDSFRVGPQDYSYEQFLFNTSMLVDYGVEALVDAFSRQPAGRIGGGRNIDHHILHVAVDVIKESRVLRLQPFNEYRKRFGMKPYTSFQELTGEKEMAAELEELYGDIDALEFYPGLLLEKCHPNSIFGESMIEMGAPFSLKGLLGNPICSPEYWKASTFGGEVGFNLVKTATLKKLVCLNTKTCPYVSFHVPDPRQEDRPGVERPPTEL
Assay: Cyclooxygenase-1 screen (COX-1)
Format: biochemical
Conditions: 300 μM
value type: COX-1 percent inhibition
Give your result as the value with the unit written after it.

Just so you know, measured COX-1 percent inhibition for O=C1OC(CCOc2ccc(Oc3ccccc3)cc2)C(O)=C1O (centres unmarked) came out at 9%

Looking up CCCCNS(=O)(=O)c1ccccc1C#CCCC1OC(=O)C(O)=C1O (centres unmarked) , I see its COX-1 percent inhibition listed as 37%

Query O=C1OC(CCOc2ccc3oc(-c4ccccc4)cc(=O)c3c2)C(O)=C1O (centres unmarked) yields COX-1 percent inhibition of 17%

Consider CCC/C=C\Cc1ccccc1C#CCCC1OC(=O)C(O)=C1O (centres unmarked) . Its measured COX-1 percent inhibition is 55%

Quick note, COX-1 percent inhibition for O=C1OC(CCC#Cc2ccc3ccccc3c2)C(O)=C1O (centres unmarked) landed at 34%

Value of measured COX-1 percent inhibition for the entry "C[C@]1(c2ccc(-c3ccccc3)cc2)OC(=O)C(O)=C1O" : 10%

Value of measured COX-1 percent inhibition for the entry O=C1OC(CCOc2cccc3ccccc23)C(O)=C1O (centres unmarked) : 11%

Kindly note the recorded COX-1 percent inhibition for CC(C)Cc1ccc(C2(c3ccccc3)OC(=O)C(O)=C2O)cc1 (centres unmarked) , which is 43%

Per the record, CCCS(=O)(=O)Cc1ccccc1C#CCCC1OC(=O)C(O)=C1O (centres unmarked) has COX-1 percent inhibition of 25%

get_value(item= O=C1OC(CCSc2nc(-c3ccccc3)c(-c3ccccc3)o2)C(O)=C1O (centres unmarked) , readout=COX-1 percent inhibition) returns 76%

Kindly note the recorded COX-1 percent inhibition for O=C1OC(CCOc2ccccc2Cc2ccccc2)C(O)=C1O (centres unmarked) , which is 12%

In plain terms, CCCC1(c2ccc(-c3ccccc3)cc2)OC(=O)C(O)=C1O (centres unmarked) has a documented COX-1 percent inhibition of 13%

For this molecule ( CCCC1(c2ccc(CC(C)C)cc2)OC(=O)C(O)=C1O (centres unmarked) ), measured COX-1 percent inhibition is 25%

The measured COX-1 percent inhibition associated with "C[C@@]1(c2ccc(-c3ccccc3)cc2)OC(=O)C(O)=C1O" reads 34%

Lab book: COX-1 percent inhibition of CC(C)CC1(c2ccc(-c3ccccc3)cc2)OC(=O)C(O)=C1O (centres unmarked) noted as 67%

// CCCSCc1ccccc1C#CCCC1OC(=O)C(O)=C1O (centres unmarked) : COX-1 percent inhibition value = 37%

Lab book: COX-1 percent inhibition of O=C1OC(CCC#Cc2ccccc2CSc2ccccc2)C(O)=C1O (centres unmarked) noted as 26%

Entry under test: CC1(c2ccc(-c3ccccc3)cc2)OC(=O)C(O)=C1O (racemic) . Its COX-1 percent inhibition was 33%

For record "CC(C)Cc1ccc([C@]2(C)OC(=O)C(O)=C2O)cc1" the listed COX-1 percent inhibition is 12%

Quick note, COX-1 percent inhibition for O=C1OC(CCSc2ccc3ccccc3c2)C(O)=C1O (centres unmarked) landed at 12%

For reference, reported COX-1 percent inhibition for O=C1OC(CCSc2cccc3ccccc23)C(O)=C1O (centres unmarked) stands at 6%

// Cc1ccccc1C#CCCC1OC(=O)C(O)=C1O (centres unmarked) : COX-1 percent inhibition value = 4%

COX-1 percent inhibition measured on CC(C)Cc1ccc(C2(C)OC(=O)C(O)=C2O)cc1 (centres unmarked) = 2%

The molecule CC1(c2ccccc2)OC(=O)C(O)=C1O (centres unmarked) showed COX-1 percent inhibition equal to -12%

Please fill in: COX-1 percent inhibition reported for CCCCCSCc1ccccc1C#CCCC1OC(=O)C(O)=C1O (centres unmarked) = 67%

COX-1 percent inhibition recorded for this molecule, O=C1OC(c2ccccc2)(c2ccc(-c3ccccc3)cc2)C(O)=C1O (centres unmarked) , is 52%

Looking up CC1(c2ccc(Cl)cc2)OC(=O)C(O)=C1O (centres unmarked) , I found its COX-1 percent inhibition recorded as 2%

// CCC/C=C\Cc1ccccc1/C=C\CCC1OC(=O)C(O)=C1O (centres unmarked) : COX-1 percent inhibition value = 38%

Lookup result for "CC(C)Cc1ccc([C@@]2(C)OC(=O)C(O)=C2O)cc1" ; measured COX-1 percent inhibition: 12%

Reported COX-1 percent inhibition of O=C1OC(CCOc2ccc3oc4ccccc4c3c2)C(O)=C1O (centres unmarked) : 17%

Entry "O=C1OC(c2ccccc2)(c2ccccc2)C(O)=C1O" ; COX-1 percent inhibition = 15%

So for O=C1OC(CCOc2ccc(-c3ccccc3)cc2)C(O)=C1O (centres unmarked) , the logged COX-1 percent inhibition turned out to be 18%

Measured COX-1 percent inhibition of O=C1OC(CCC#Cc2ccccc2)C(O)=C1O (centres unmarked) : 5%

Sample O=C1OC(CCN2c3cccc4cccc(c34)S2(=O)=O)C(O)=C1O (centres unmarked) ; COX-1 percent inhibition observed: -15%

// sample O=C1OC(CCN2C(=O)c3cccc4cccc(c34)C2=O)C(O)=C1O (centres unmarked) , its COX-1 percent inhibition was 9%

* * *

Molecular target: 5-Lipoxygenase (crude enzyme preparation from rat basophilic leukemia cells, RBL-1) (Rattus norvegicus, UniProt P12527)
Construct: crude enzyme preparation from rat basophilic leukemia cells (RBL-1); endogenous in cells; host or cells: rat basophilic leukemia cells (RBL-1)
Sequence (P12527 whole entry): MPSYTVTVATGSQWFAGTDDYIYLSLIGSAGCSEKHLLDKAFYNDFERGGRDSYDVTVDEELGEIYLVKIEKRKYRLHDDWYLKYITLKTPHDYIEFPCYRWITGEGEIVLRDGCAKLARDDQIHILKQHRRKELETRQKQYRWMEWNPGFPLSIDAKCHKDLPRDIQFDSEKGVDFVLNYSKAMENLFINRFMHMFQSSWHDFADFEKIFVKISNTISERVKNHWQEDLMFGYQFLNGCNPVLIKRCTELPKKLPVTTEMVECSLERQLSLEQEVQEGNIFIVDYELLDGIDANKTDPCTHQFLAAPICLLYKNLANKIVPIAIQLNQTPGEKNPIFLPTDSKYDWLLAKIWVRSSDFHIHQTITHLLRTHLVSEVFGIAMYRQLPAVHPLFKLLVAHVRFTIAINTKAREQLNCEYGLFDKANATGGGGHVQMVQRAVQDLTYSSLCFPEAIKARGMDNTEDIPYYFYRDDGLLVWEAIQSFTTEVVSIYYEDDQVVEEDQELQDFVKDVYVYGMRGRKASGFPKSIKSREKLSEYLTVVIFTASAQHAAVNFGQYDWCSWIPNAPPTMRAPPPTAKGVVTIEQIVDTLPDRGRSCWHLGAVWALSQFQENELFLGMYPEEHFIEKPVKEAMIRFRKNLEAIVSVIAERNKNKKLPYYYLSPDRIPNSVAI
Test: 5-Lipoxygenase screen (5-LO), 5-HETE by RIA
Format: biochemical
Conditions: read-out: Percent inhibition of 5-LO; test conc. 1 μM (Table II)
Experimental: The compounds of the invention were screened for their anti-inflammatory activity using a series of in vitro tests the details of which are given below. The activity of various compounds against 5-lipoxygenase, cycloxygenase-1, cycloxygenase-2 and lipid peroxidase was evaluated. Results of the screening procedures are included in TABLE I, and the activity against 5-lipoxygenase at a test concentration of 1 μM in Table II. […]
Record form. Attribute: inhibition at 1 µM. Fill in for each entry.
# value in %; strip the unit string

// inhibition at 1 µM value for CC1(c2ccc(-c3ccccc3)cc2)OC(=O)C(O)=C1O (racemic) [Example 2] : 15

Record O=C1OC(CCSc2ccc3ccccc3c2)C(O)=C1O (stereo not shown) [Example 26] , field inhibition at 1 µM: 54

Sample C[C@@]1(c2ccc(-c3ccccc3)cc2)OC(=O)C(O)=C1O [Example 11] ; inhibition at 1 µM observed: 59

# inhibition at 1 µM (compound: O=C1OC(CCSc2nc(-c3ccccc3)c(-c3ccccc3)o2)C(O)=C1O (stereo not shown) [Example 24] ) is 71

* * *

Biological target: 5-Lipoxygenase (crude enzyme preparation from rat basophilic leukemia cells, RBL-1) (Rattus norvegicus, UniProt P12527)
Construct: crude enzyme preparation from rat basophilic leukemia cells (RBL-1); endogenous in cells; host or cells: rat basophilic leukemia cells (RBL-1)
Test: 5-Lipoxygenase screen (5-LO), 5-HETE by RIA
Format: biochemical
Settings: read-out: Percent inhibition of 5-LO; test conc. 1 μM (Table II)
Description: The compounds of the invention were screened for their anti-inflammatory activity using a series of in vitro tests the details of which are given below. The activity of various compounds against 5-lipoxygenase, cycloxygenase-1, cycloxygenase-2 and lipid peroxidase was evaluated. Results of the screening procedures are included in TABLE I, and the activity against 5-lipoxygenase at a test concentration of 1 μM in Table II. […]
Think of 60% as a floor: if inhibition at 1 µM stands on it or above, it is fulfilled; beneath it, not fulfilled.

## Input Textbook exercise: given the entry O=C1OC(CCOc2cccc3ccccc23)C(O)=C1O (stereo not shown) [Example 18] , state whether its inhibition at 1 µM is greater than or equal to 60%.
## Output not fulfilled

## Input Determine whether this molecule has inhibition at 1 µM no lower than 60%: O=C1OC(CCN2c3cccc4cccc(c34)S2(=O)=O)C(O)=C1O (stereo not shown) [Example 20]
## Output not fulfilled

## Input Has CCC/C=C\Cc1ccccc1C#CCCC1OC(=O)C(O)=C1O (stereo not shown) [Example 29] a recorded inhibition at 1 µM greater than or equal to 60%?
## Output not fulfilled

## Input Check if inhibition at 1 µM >= 60% (inclusive). Item: O=C1OC(CCC#Cc2ccc3ccccc3c2)C(O)=C1O (stereo not shown) [Example 32]
## Output fulfilled

## Input Check the entry O=C1OC(CCOc2ccccc2Cc2ccccc2)C(O)=C1O (stereo not shown) [Example 21] : does inhibition at 1 µM equal or exceed 60%?
## Output fulfilled

## Input Please tell me: is the molecule O=C1OC(CCOc2ccc(-c3ccccc3)cc2)C(O)=C1O (stereo not shown) [Example 22] at or over 60% in terms of inhibition at 1 µM?
## Output not fulfilled

## Input Textbook exercise: given the entry O=C1OC(CCOc2ccc3oc(-c4ccccc4)cc(=O)c3c2)C(O)=C1O (stereo not shown) [Example 16] , state whether its inhibition at 1 µM is greater than or equal to 60%.
## Output not fulfilled

## Input Exam item: decide whether the reported inhibition at 1 µM for O=C1OC(CCSc2cccc3ccccc23)C(O)=C1O (stereo not shown) [Example 25] is at least 60%.
## Output not fulfilled

## Input Check if inhibition at 1 µM >= 60% (inclusive). Item: CC(C)CC1(c2ccc(-c3ccccc3)cc2)OC(=O)C(O)=C1O (stereo not shown) [Example 6]
## Output fulfilled
